Listing of recorded self-splicing fitness (ln) by entry.
measurementNotes: self-splicing fitness, log relative to wild type (ln ratio); higher = more splicing; Tetrahymena group I intron in knt gene, E. coli kanamycin selection, DiMSum; sequences stand for … in CUCUCU…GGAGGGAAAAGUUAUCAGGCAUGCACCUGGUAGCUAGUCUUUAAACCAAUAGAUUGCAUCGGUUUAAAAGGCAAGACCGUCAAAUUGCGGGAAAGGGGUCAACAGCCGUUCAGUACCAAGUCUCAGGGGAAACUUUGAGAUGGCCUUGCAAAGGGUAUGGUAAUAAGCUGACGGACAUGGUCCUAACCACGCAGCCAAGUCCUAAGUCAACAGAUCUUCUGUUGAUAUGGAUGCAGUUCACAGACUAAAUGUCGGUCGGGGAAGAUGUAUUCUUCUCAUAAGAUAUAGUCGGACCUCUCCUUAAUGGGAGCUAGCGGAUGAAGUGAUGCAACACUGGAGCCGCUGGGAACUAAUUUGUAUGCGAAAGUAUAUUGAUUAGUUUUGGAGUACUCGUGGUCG;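 further: selection with 25 µg/mL kanamycin versus none on LB agar overnight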
testConditions: 37 °C
// return just the number, without any unit appended

The cases that follow already have their self-splicing fitness (ln) on record.
> print(dat)
   macromoleculesequence            measuredquantity  experimentalresult
1   GGUCAGCAAUAUUACGCCAG  self-splicing fitness (ln)                -3.3
2   GCAUAGCAAUAUUACGAGCC  self-splicing fitness (ln)               -2.49
3   CCGCAGCAAUAUUACGUACG  self-splicing fitness (ln)               0.254
4   UGCAAGCAAUAUUACGCGUC  self-splicing fitness (ln)               -2.93
5   ACUAAGCAAUAUUACGCGCC  self-splicing fitness (ln)              -0.687

**Query** Which self-splicing fitness (ln) reading was recorded for the sequence UAGGAGCAAUAUUACGGAUG ?
**Result** -1.69

**Query** Which self-splicing fitness (ln) reading was recorded for the sequence CUAGAGCAAUAUUACGGGUG ?
**Result** -0.643

**Query** Which self-splicing fitness (ln) reading was recorded for the sequence GCUUAGCAAUAUUACGGGAU ?
**Result** -0.453
